# Tested on: Fibroblast
# test name: Multiplex assay against human fibroblast
# Format: toxicity, cell-based
# test conditions: 12 h, 10 µM, compound concentration 10 uM, replicate 1
property measured: Population Apoptotic (%)
Reply with just the number (in %).

>>> print(df.to_string())
                                   compound  tested_system         property_measured  quantitative_readout
0  Cc1ccc(F)cc1C(=O)Nc1ccc(C(=O)N2Cc3cccn3Cc3ccccc32)c(Cl)c1 [LIXIVAPTAN]     Fibroblast  Population Apoptotic (%)                    34
1  CN(C)CCCc1cc(C(=O)Nc2ccc(-c3ccncc3)cc2)ccc1O.Cl.Cl     Fibroblast  Population Apoptotic (%)                    68
2  O=C(O)c1cc2ccccc2c(Cc2c(O)c(C(=O)O)cc3ccccc23)c1O [PAMOIC ACID]     Fibroblast  Population Apoptotic (%)                    40
3  CCCN1CCC[C@@H]2Cc3n[nH]cc3C[C@H]21.Cl [QUINPIROLE HYDROCHLORIDE]     Fibroblast  Population Apoptotic (%)                    58
4  O=C(NCC(=O)N1CC[C@H](N[C@H]2CC[C@@](O)(c3ccc(-c4ncccn4)cn3)CC2)C1)c1cccc(C(F)(F)F)c1 [PF-4136309]     Fibroblast  Population Apoptotic (%)                    60
5  c1cc(OCCCN2CCCCC2)ccc1CN1CCCCC1 [JNJ-5207852]     Fibroblast  Population Apoptotic (%)                    50

I'd like to know its Population Apoptotic (%). The compound in question is CSc1ccccc1N1CCN(CCCCCC(=O)NC2CCCc3ccccc32)CC1.Cl (centres undefined) 58

What about this compound? CC1(COc2ccc3c(c2)ncn3-c2ccc3cccc(N4CCC(N)CC4)c3n2)COC1 [CRENOLANIB] 33

Same read-out for Cc1ccc(C(C)(O)c2nc3ccccc3s2)c(C)c1 (centres undefined) ? 44
